- System: Staphylococcus aureus
- Protocol Text: Bactericidal activity against Staphylococcus aureus CCM 4516/08 after 48 hrs by microdilution broth method
- Assay type: functional
- Applied Conditions: CCM 4516/08, 48 h, read-out: MBC>99.9
Let's look at some compounds and their measured MBC.
Quantity Kind: MBC (µM)

1) CCCCCCCCCCCC[n+]1cccc2cc(O)ccc21.[Br-]; 7.81
2) CCCCCCCCCCCCCCCC[n+]1cccc2cc(O)ccc21.[Br-]; 7.81
3) CCCCCCCCCCCCCCCC[N+](C)(C)Cc1ccccc1; 3.91
4) CCCCCCCCCCCCCCCC[n+]1ccccc1 [CETYLPYRIDINIUM BROMIDE]; 3.91
5) CCCCCCCCCCCCCC[n+]1ccccc1; 3.91
6) CCCCCCCCCCCCCC[N+](C)(C)Cc1ccccc1; 3.91
